Recorded Ki by entry
biological target: D(1A) dopamine receptor (Homo sapiens); test: Displacement of [3H]SCH23390 from D1 receptor
Sequence (P21728 whole entry): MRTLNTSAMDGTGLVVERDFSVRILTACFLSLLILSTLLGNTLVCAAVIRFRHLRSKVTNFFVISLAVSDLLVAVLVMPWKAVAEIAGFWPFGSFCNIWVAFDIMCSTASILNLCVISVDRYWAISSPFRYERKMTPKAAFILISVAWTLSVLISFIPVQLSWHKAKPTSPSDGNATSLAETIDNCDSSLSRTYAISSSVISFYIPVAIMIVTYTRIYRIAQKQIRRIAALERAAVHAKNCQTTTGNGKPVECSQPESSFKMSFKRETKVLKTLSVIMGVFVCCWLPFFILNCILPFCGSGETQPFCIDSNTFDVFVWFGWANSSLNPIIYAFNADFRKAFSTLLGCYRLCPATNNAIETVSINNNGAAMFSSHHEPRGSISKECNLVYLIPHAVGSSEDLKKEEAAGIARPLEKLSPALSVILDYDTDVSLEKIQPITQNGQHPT
# output: bare number, implied unit nM

>>> measured_result("O=C(NCCCCN1CCN(c2cccc(Cl)c2Cl)CC1)c1cc2cc(I)ccc2o1")
2920

Which value of Ki has been reported for COc1ccccc1N1CCN(CCCCNC(=O)c2cc3cc(I)ccc3o2)CC1 in the records? 900

* * *

assay: Antagonist activity at human D3 receptor expressed in HEK293 cells assessed as inhibition of quinpirole-stimulated mitogenesis
assay-readout: IC50 (nM)
# output: bare number, implied unit nM

Which value of IC50 has been reported for O=C(NC/C=C/CN1CCN(c2cccc(Cl)c2Cl)CC1)c1cc2ccccc2s1 in the records? 9.62

* * *

target: D(3) dopamine receptor (Homo sapiens)
assay-readout: pKi
FYI, pKi means -log10 of a concentration in mol per litre.

# returns recorded pKi (system: D(3) dopamine receptor (Homo sapiens)) for COc1ccccc1N1CCN(CCCCNC(=O)c2cc3ccccc3[nH]2)CC1 9.49

* * *

Recorded pKi by entry
molecular target: D(3) dopamine receptor (Homo sapiens, UniProt P35462); experiment: biochemical
Sequence (P35462 whole entry): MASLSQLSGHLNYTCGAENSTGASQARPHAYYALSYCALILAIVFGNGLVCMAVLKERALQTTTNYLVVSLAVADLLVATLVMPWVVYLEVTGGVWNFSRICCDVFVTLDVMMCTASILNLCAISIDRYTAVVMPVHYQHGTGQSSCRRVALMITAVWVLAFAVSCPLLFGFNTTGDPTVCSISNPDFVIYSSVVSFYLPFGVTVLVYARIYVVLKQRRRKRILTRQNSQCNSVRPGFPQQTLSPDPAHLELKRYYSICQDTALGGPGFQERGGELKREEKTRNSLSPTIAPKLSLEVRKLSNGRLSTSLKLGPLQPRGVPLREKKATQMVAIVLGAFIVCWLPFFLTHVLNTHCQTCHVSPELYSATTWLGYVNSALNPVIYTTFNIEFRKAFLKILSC
FYI, pKi means -log10 of a concentration in mol per litre.

Which value of pKi has been reported for COc1ccccc1N1CCN(CC(O)CCNC(=O)c2cc3cc(F)ccc3[nH]2)CC1 (centres undefined) in the records? 8.62

Which value of pKi has been reported for O=C(NCCC(O)CN1CCN(c2cccc(Cl)c2Cl)CC1)c1cc2cc(I)ccc2o1 (centres undefined) in the records? 8.11

Which value of pKi has been reported for COc1ccccc1N1CCN(C/C=C/CNC(=O)c2cc3ccccc3s2)CC1 in the records? 8.58

Which value of pKi has been reported for COc1ccccc1N1CCN(CCCCNC(=O)c2cc3cc(I)ccc3o2)CC1 in the records? 9.14

Which value of pKi has been reported for COc1ccccc1N1CCN(CC(O)CCNC(=O)c2cc3cc(I)ccc3o2)CC1 (centres undefined) in the records? 8.12

Which value of pKi has been reported for COc1ccccc1N1CCN(C/C=C/CNC(=O)c2cc3ccccc3o2)CC1 in the records? 7.95

* * *

Target protein (sequence): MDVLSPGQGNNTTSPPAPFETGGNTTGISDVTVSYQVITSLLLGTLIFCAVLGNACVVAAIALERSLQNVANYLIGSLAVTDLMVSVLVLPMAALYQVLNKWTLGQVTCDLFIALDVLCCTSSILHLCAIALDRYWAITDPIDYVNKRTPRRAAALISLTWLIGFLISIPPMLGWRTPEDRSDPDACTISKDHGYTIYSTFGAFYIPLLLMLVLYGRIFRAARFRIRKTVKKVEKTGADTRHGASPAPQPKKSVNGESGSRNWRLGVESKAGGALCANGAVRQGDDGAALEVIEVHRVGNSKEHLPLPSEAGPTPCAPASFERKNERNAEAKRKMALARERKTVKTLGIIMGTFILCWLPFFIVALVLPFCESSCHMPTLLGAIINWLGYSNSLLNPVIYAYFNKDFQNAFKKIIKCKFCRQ
Recorded pKi by entry
FYI, pKi means -log10 of a concentration in mol per litre.

Below, each entry is followed by its recorded pKi result.
>>> measured_result("O=C(NC/C=C/CN1CCN(c2cccc(Cl)c2Cl)CC1)c1cc2ccccc2s1")
6.41
>>> measured_result("COc1ccccc1N1CCN(CC(O)CCNC(=O)c2cc3ccccc3[nH]2)CC1 (stereo not drawn)")
6.88

Which value of pKi has been reported for O=C(NC/C=C/CN1CCN(c2cccc(Cl)c2Cl)CC1)c1cc2ccccc2o1 in the records? 7.23
